- System: E34 (patient-derived glioblastoma stem cells of proneural subtype);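 further: nuclei counted by high-content imaging of Hoechst-stained cells in laminin-coated 384-well plates, relative to 0.1% DMSO vehicle wells, with staurosporine as cell-death control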
- ASSAY_PROCEDURE: surviving fraction (nuclei count normalised to DMSO); higher = more cells surviving (less toxic)
- COND: 12.34567901 nM; exposure time: 72 h
Structures can show the parent of a compound that is named as a salt.
Outcome: class 1 for surviving fraction of at least 1; class 0 for anything lower.

COMPOUND | ASSIGNED_CLASS
OCCN1C[C@H](O)[C@@H](O)[C@H](O)[C@H]1CO | class 1

Inquiry: Reported surviving fraction reaches at least 1 for `CC(C)C[C@H](NC(=O)[C@H](Cc1ccccc1)C[C@@H](O)[C@H](Cc1ccccc1)NC(=O)OC(C)(C)C)C(=O)N[C@@H](Cc1ccccc1)C(N)=O` ?
Reply text: class 0

Inquiry: Reported surviving fraction reaches at least 1 for COC(=O)[C@@H]1[C@H]2C[C@H]3c4[nH]c5ccccc5c4CCN3C[C@@H]2CC[C@@H]1O [Yohimbine hydrochloride] ?
Reply text: class 0

Inquiry: Reported surviving fraction reaches at least 1 for `Cc1[nH]nc(C(F)(F)F)c1Cc1sc2c(c1C(=O)N1C[C@](C)(O)CO1)c(=O)n(C)c(=O)n2C(C)C` ?
Reply text: class 0

Inquiry: Reported surviving fraction reaches at least 1 for COc1cc([C@@H]2c3cc4c(cc3[C@@H](O[C@@H]3O[C@@H]5CO[C@@H](C)O[C@H]5[C@H](O)[C@H]3O)[C@H]3COC(=O)[C@H]23)OCO4)cc(OC)c1O [Etoposide] ?
Reply text: class 0
